Here, each record is paired with measured Population Apoptotic (%) data.
System: U2OS
assay_overview: Multiplex assay against U2OS
Format: toxicity, cell-based
condition_label: human, 24 h, 10 µM, compound concentration 10 uM, replicate 1
I'd appreciate it if you included the unit after the number.

[[record]]
molecule = "C=CC(=O)Nc1cccc(C(=O)Nc2ccc(Nc3cc(-c4[nH]c(SC)nc4C)ccn3)cc2)c1"
assayed_target = "U2OS"
readout_label = "Population Apoptotic (%)"
recorded_value = "52%"

[[record]]
molecule = "CN1CCN(CCOc2cc(OC3CCOCC3)c3c(Nc4c(Cl)ccc5c4OCO5)ncnc3c2)CC1"
assayed_target = "U2OS"
readout_label = "Population Apoptotic (%)"
recorded_value = "76%"

[[record]]
molecule = "CCN(CC)CCCCNc1ncc2cc(-c3cc(OC)cc(OC)c3)c(NC(=O)NC(C)(C)C)nc2n1"
assayed_target = "U2OS"
readout_label = "Population Apoptotic (%)"
recorded_value = "35%"

[[record]]
molecule = "Cc1nc(Nc2n[nH]c3c2CN(C(=O)N[C@H](CN(C)C)c2ccccc2)C3(C)C)c2sccc2n1"
assayed_target = "U2OS"
readout_label = "Population Apoptotic (%)"
recorded_value = "78%"

[[record]]
molecule = "CC[C@H](C)C(=O)O[C@H]1C[C@@H](C)C=C2C=C[C@H](C)[C@H](CC[C@@H]3C[C@@H](O)CC(=O)O3)[C@H]21"
assayed_target = "U2OS"
readout_label = "Population Apoptotic (%)"
recorded_value = "25%"

[[record]]
molecule = "C[C@@H](NCCCc1cccc(C(F)(F)F)c1)c1cccc2ccccc12.Cl [CINACALCET HYDROCHLORIDE]"
assayed_target = "U2OS"
readout_label = "Population Apoptotic (%)"
recorded_value = "72%"


Now examine the next entry.
Provide Population Apoptotic (%), recorded with U2OS, of CN(C)CC#Cc1ccc(OCCCc2sc(N3CCc4cccc(C(=O)Nc5nc6ccccc6s5)c4C3)nc2C(=O)O)c(F)c1
58%

====

Tested on: Fibroblast
assay_overview: Multiplex assay against human fibroblast
Type: toxicity, cell-based
condition_label: 24 h, 10 µM, compound concentration 10 uM, replicate 1
Here, each record is paired with measured Population Membrane Permeable-Phenotype (%) data.
Report as a plain number; the unit % is understood.

[[record]]
molecule = "CN(C)C(=O)/C(C#N)=C/c1ccc(-c2nc3cnc4[nH]ccc4c3n2C2CCCCC2)o1"
recorded_value = 28

[[record]]
molecule = "c1cn2cc(-c3ccc4cn[nH]c4c3)nc(Nc3ccc(N4CCOCC4)cc3)c2n1"
recorded_value = 23


Entry CN(C)C(=O)N[C@H]1CC[C@H](CCN2CCN(c3cccc(Cl)c3Cl)CC2)CC1.Cl [CARIPRAZINE HYDROCHLORIDE] needs its Population Membrane Permeable-Phenotype (%) filled in; supply it.
17

Entry C[C@@H](NCCCc1cccc(C(F)(F)F)c1)c1cccc2ccccc12.Cl [CINACALCET HYDROCHLORIDE] needs its Population Membrane Permeable-Phenotype (%) filled in; supply it.
10

Entry CC[C@H](C)C(=O)O[C@H]1C[C@@H](C)C=C2C=C[C@H](C)[C@H](CC[C@@H]3C[C@@H](O)CC(=O)O3)[C@H]21 needs its Population Membrane Permeable-Phenotype (%) filled in; supply it.
19

Entry CC(C)NCC(O)COc1ccc(CCOCC2CC2)cc1.Cl (stereo unspecified) [BETAXOLOL HYDROCHLORIDE] needs its Population Membrane Permeable-Phenotype (%) filled in; supply it.
19

Entry CN1CCN(CCOc2cc(OC3CCOCC3)c3c(Nc4c(Cl)ccc5c4OCO5)ncnc3c2)CC1 needs its Population Membrane Permeable-Phenotype (%) filled in; supply it.
11

Entry CN(C)CC#Cc1ccc(OCCCc2sc(N3CCc4cccc(C(=O)Nc5nc6ccccc6s5)c4C3)nc2C(=O)O)c(F)c1 needs its Population Membrane Permeable-Phenotype (%) filled in; supply it.
44

Entry Cc1nc(-c2cn3c(n2)-c2ccc(-c4cnn(C(C)(C)C(N)=O)c4)cc2OCC3)n(C(C)C)n1 needs its Population Membrane Permeable-Phenotype (%) filled in; supply it.
6

Entry Cc1c(-c2ccc(O)cc2)n(Cc2ccc(OCCN3CCCCCC3)cc2)c2ccc(O)cc12 needs its Population Membrane Permeable-Phenotype (%) filled in; supply it.
12

====

System: Fibroblast
assay_overview: Multiplex assay against human fibroblast
Format: toxicity, cell-based
condition_label: 12 h, 1 µM, compound concentration 1 uM, replicate 1
readout_label: Population Normal (%)
Report as a plain number; the unit % is understood.

# annotated cases, reported Population Normal (%) shown
[[record]]
compound = "Cl.N#Cc1ccc2[nH]cc(CCCCN3CCN(c4ccc5oc(C(N)=O)cc5c4)CC3)c2c1 [VILAZODONE HYDROCHLORIDE]"
recorded_value = 80

[[record]]
compound = "CC(C)(O)CNc1ncc(-c2ccnc(Nc3ccnc(Cl)c3)n2)c(CC2CC2)n1"
recorded_value = 85

[[record]]
compound = "Cc1nc(Nc2n[nH]c3c2CN(C(=O)N[C@H](CN(C)C)c2ccccc2)C3(C)C)c2sccc2n1"
recorded_value = 86


Entry Cc1cc(C)cc(-c2cnc3cc(Cl)c(-c4cccc(O)c4)cc3c2OCCCN)c1 needs its Population Normal (%) filled in; supply it.
83

Entry CC(C)NCC(O)COc1ccc(CCOCC2CC2)cc1.Cl (stereo unspecified) [BETAXOLOL HYDROCHLORIDE] needs its Population Normal (%) filled in; supply it.
95

Entry Cc1csc2c(N[C@@H](C)CN3CCN(S(=O)(=O)c4ccc(Cl)c(Cl)c4)CC3)ncnc12 needs its Population Normal (%) filled in; supply it.
94

Entry Cc1c(-c2ccc(O)cc2)n(Cc2ccc(OCCN3CCCCCC3)cc2)c2ccc(O)cc12 needs its Population Normal (%) filled in; supply it.
86

Entry CNc1nc(NCc2ccc(NS(C)(=O)=O)cc2Cl)cc(-c2ccccn2)n1 needs its Population Normal (%) filled in; supply it.
92

Entry C[C@@]1(C(=O)Nc2ccc(F)nc2)CCCN1c1nc(Nc2cc(C3CC3)n[nH]2)c2cccn2n1 needs its Population Normal (%) filled in; supply it.
89

Entry CC[C@H](C)C(=O)O[C@H]1C[C@@H](C)C=C2C=C[C@H](C)[C@H](CC[C@@H]3C[C@@H](O)CC(=O)O3)[C@H]21 needs its Population Normal (%) filled in; supply it.
86

Entry Cc1[nH]c(/C=C2\C(=O)Nc3ccc(S(=O)(=O)N(C)c4cccc(Cl)c4)cc32)c(C)c1C(=O)N1CCN(C)CC1 needs its Population Normal (%) filled in; supply it.
91

Entry Cn1cc(-c2[nH]c3cc(NC(=O)[C@H](N)C4CCCCC4)cc4c3c2C=NNC4=O)cn1 needs its Population Normal (%) filled in; supply it.
91

Entry Cc1nc(-c2cn3c(n2)-c2ccc(-c4cnn(C(C)(C)C(N)=O)c4)cc2OCC3)n(C(C)C)n1 needs its Population Normal (%) filled in; supply it.
87

Entry CN(C)CC#Cc1ccc(OCCCc2sc(N3CCc4cccc(C(=O)Nc5nc6ccccc6s5)c4C3)nc2C(=O)O)c(F)c1 needs its Population Normal (%) filled in; supply it.
87

Entry COc1cccc([C@@H](C)NCCCc2ccccc2Cl)c1.Cl [TECALCET HYDROCHLORIDE] needs its Population Normal (%) filled in; supply it.
90

Entry C=CC(=O)Nc1cc2c(Nc3ccc(F)c(Cl)c3)ncnc2cc1OCCCN1CCOCC1.Cl.Cl [CANERTINIB DIHYDROCHLORIDE] needs its Population Normal (%) filled in; supply it.
70

====

Tested on: HEK-293T
assay_overview: Multiplex assay against HEK293T
Format: toxicity, cell-based
condition_label: human, 24 h, 10 µM, compound concentration 10 uM, replicate 2
readout_label: Population Hoechst High Intensity Objects (%)
Report as a plain number; the unit % is understood.

# annotated cases, reported Population Hoechst High Intensity Objects (%) shown
[[record]]
compound = "C=CC(=O)Nc1cccc(C(=O)Nc2ccc(Nc3cc(-c4[nH]c(SC)nc4C)ccn3)cc2)c1"
recorded_value = 5

[[record]]
compound = "CN1CCC[C@@H]1CCO[C@](C)(c1ccccc1)c1ccc(Cl)cc1.O=C(O)/C=C/C(=O)O [CLEMASTINE FUMARATE]"
recorded_value = 6

[[record]]
compound = "Cc1sc2c(c1C)C(c1ccc(Cl)cc1)=N[C@@H](CC(=O)OC(C)(C)C)c1nnc(C)n1-2"
recorded_value = 5

[[record]]
compound = "COc1cc2nccc(Oc3ccc(NC(=O)Nc4cc(C)on4)c(Cl)c3)c2cc1OC.O"
recorded_value = 1

[[record]]
compound = "Cc1nc(-c2cn3c(n2)-c2ccc(-c4cnn(C(C)(C)C(N)=O)c4)cc2OCC3)n(C(C)C)n1"
recorded_value = 4

[[record]]
compound = "COc1cc(-n2cnc3cc(-c4ccc(Cl)cc4)sc3c2=O)ccc1OCCN1CCCC1"
recorded_value = 7

[[record]]
compound = "Cc1[nH]c(/C=C2\\C(=O)Nc3ccc(S(=O)(=O)N(C)c4cccc(Cl)c4)cc32)c(C)c1C(=O)N1CCN(C)CC1"
recorded_value = 4


Now examine the next entry.
Entry C=CC(=O)Nc1ccc2ncnc(Nc3ccc(OCc4cccc(F)c4)c(Cl)c3)c2c1.Cc1ccc(S(=O)(=O)O)cc1 needs its Population Hoechst High Intensity Objects (%) filled in; supply it.
9

These measurements were taken from ChEMBL document CHEMBL4689842.
